- STUDY_TARGET: Akt3 (Homo sapiens)
- Sequence (Q9Y243 whole entry): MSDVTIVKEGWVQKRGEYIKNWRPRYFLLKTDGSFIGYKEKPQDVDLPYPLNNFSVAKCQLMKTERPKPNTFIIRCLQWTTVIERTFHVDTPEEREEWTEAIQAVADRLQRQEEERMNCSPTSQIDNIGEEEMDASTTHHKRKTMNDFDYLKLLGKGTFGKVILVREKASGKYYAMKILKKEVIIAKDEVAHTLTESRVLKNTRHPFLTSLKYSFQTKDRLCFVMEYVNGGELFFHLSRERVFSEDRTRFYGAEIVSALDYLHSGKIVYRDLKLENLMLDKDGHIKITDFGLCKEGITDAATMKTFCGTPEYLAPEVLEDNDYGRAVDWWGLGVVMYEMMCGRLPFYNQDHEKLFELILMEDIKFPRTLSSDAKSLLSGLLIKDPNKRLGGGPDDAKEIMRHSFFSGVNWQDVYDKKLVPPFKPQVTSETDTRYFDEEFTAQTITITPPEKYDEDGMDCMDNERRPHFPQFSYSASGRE
ASSAY_METRIC: IC50

Task item: Give the measured IC50 of OCCCCOc1nn2c(-c3ccccc3)nnc2cc1-c1ccccc1 [Compound 2] .
Reply: > 50 µM

* * *

- STUDY_TARGET: active human Akt1 (Homo sapiens, UniProt P31749)
- Construct: purchased Upstate Biotechnology 14-276
- Sequence (P31749 whole entry): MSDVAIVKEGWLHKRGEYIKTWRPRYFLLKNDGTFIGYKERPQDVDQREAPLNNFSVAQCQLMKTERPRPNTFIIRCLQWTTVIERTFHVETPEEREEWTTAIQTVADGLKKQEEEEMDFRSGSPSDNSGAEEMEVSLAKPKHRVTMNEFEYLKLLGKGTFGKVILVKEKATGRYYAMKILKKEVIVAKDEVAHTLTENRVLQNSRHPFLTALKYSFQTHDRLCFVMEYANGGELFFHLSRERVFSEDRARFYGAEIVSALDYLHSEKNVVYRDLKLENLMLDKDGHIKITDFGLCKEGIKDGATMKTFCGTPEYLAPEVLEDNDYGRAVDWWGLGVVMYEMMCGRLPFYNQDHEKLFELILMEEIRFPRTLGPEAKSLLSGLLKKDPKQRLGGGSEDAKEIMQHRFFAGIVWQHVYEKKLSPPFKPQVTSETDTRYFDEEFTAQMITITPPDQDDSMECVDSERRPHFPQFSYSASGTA
- EXPERIMENTAL_PROTOCOL: Akt kinase assay, phosphorylation of GSK3-derived peptide
- Format: biochemical
- ASSAY_CONTEXT: GSK3 peptide substrate; read-out: GSK3 Peptide Substrate IC50 (μM) Akt-1
ASSAY_METRIC: IC50 (µM)
Value expressed in µM; do not type the unit.

Task item: Item OCCCCOc1nn2c(-c3ccccc3)nnc2cc1-c1ccccc1 [Compound 2] has what recorded IC50?
Reply: 4.65
